test system: Klebsiella pneumoniae KPN+19-15; format: cell-based; settings: KPN+19-15
Bridge positions count the residues as written; N and C are the ends. Square brackets hold non-standard residues; d marks the D form. Peptide text beside a SMILES is read from it. * marks the point of attachment. Nonanoyl = CCCCCCCCC(=O)*; Heptanoyl = CCCCCCC(=O)*; dDap = NC[C@@H](N)C(=O)O; Dab = NCC[C@H](N)C(=O)O; Dap = NC[C@H](N)C(=O)O
MEASUREMENT NAME: MIC (µg/mL)
The response must be a number in µg/mL with no trailing unit.

Specify MIC for CCCCCCCCC(=O)N[C@@H](CCN)C(=O)N[C@H](C(=O)N[C@H](CO)C(=O)N[C@H]1CCNC(=O)[C@H]([C@@H](C)O)NC(=O)[C@H](CN)NC(=O)[C@H](CCN)NC(=O)[C@H]([C@@H](C)O)NC(=O)[C@@H](Cc2ccccc2)NC(=O)[C@H](CCN)NC1=O)[C@@H](C)O [Compound 85] (Nonanoyl-[Dab]T[dS][Dab][Dab][dF]T[Dab][Dap]T; lactam 4-C) and stop. 0.5

Specify MIC for CCCCCCC(=O)N[C@@H](CCN)C(=O)N[C@H](C(=O)N[C@H](CN)C(=O)N[C@H]1CCNC(=O)[C@H]([C@@H](C)O)NC(=O)[C@H](CCN)NC(=O)[C@H](CCN)NC(=O)[C@H](CC(C)C)NC(=O)[C@@H](Cc2ccccc2)NC(=O)[C@H](CCN)NC1=O)[C@@H](C)O [Compound 34] (Heptanoyl-[Dab]T[dDap][Dab][Dab][dF]L[Dab][Dab]T; lactam 4-C) and stop. 0.06
